measurement.description: recombinant UMI read abundance after kanamycin selection (control-corrected) (log10(CPM+1)); higher = more efficient recombination; extreme values may be limits of the assay; sequences stand for … in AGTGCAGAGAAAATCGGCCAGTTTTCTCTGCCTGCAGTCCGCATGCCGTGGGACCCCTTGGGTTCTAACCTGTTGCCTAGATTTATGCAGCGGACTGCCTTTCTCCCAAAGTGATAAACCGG…AGGTTGGTTTCACT; site = the 11-nt donor
Please provide measured recombinant UMI read abundance (log10) for the entries that follow.
Lab note: record the figure alone, no unit after it.

Q) Give the reported recombinant UMI read abundance (log10) for this sequence. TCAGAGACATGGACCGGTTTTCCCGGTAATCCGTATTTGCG (site TGAGAGACTCG)
A) 0.498

Q) Consider the sequence TCAGACCCATGGACCGGTTTTCCCGGTAATCCGTATTTGGA (site TCAGACCCTTC) . State its measured recombinant UMI read abundance (log10).
A) 0.201

Q) For the sequence TTTGCGGCATGGACCGGTTTTCCCGGTAATCCGTATTTGAT (site TTTGCGGCTAC) , give its measured recombinant UMI read abundance (log10) value.
A) 0.00828

Q) Determine its reported recombinant UMI read abundance (log10): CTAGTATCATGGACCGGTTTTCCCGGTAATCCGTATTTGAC (site CTCGAATCTGT)
A) 0

Q) Indicate the recorded recombinant UMI read abundance (log10) value for this sequence: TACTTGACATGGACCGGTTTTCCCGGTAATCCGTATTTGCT (site TACTTGACTAT)
A) 0.00796

Q) Tell me measured recombinant UMI read abundance (log10) for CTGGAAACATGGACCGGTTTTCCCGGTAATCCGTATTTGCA (site CTGCAAACTTG) please.
A) 0

Q) Specify measured recombinant UMI read abundance (log10) for CCCACGCCATGGACCGGTTTTCCCGGTAATCCGTATTTGTA (site GCCACGCCTTA) .
A) 0.00718

Q) # return recorded recombinant UMI read abundance (log10) for entry CGTAAGACATGGACCGGTTTTCCCGGTAATCCGTATTTGAG (site CGTTAGACTCT)
A) 0.396

Q) Fill in reported recombinant UMI read abundance (log10) for this entry: GGGCACCCATGGACCGGTTTTCCCGGTAATCCGTATTTGTT (site GGCCACCCTAA)
A) 0.161

Q) Name the recorded recombinant UMI read abundance (log10) of the sequence listed here: CGATCAGCATGGACCGGTTTTCCCGGTAATCCGTATTTGCA (site CGATCAGCTTG)
A) 1.9

Q) Respond only with recombinant UMI read abundance (log10) recorded for ACATATCCATGGACCGGTTTTCCCGGTAATCCGTATTTGAC (site ACAGATCCTGT)
A) 0

Q) Supply reported recombinant UMI read abundance (log10) belonging to this sequence: AGTGCCACATGGACCGGTTTTCCCGGTAATCCGTATTTGAG (site AGTGCCACTCT)
A) 0.4

Q) Give reported recombinant UMI read abundance (log10) value for CGGGAATCATGGACCGGTTTTCCCGGTAATCCGTATTTGCC (site CGGGAGTCTGG)
A) 2.11

Q) Respond only with recombinant UMI read abundance (log10) recorded for CGCTGATCATGGACCGGTTTTCCCGGTAATCCGTATTTGCC (site CGCTGATCTGG)
A) 1.88

Q) For the sequence GACCACCCATGGACCGGTTTTCCCGGTAATCCGTATTTGTT (site GGCCACCCTAA) , give its reported recombinant UMI read abundance (log10).
A) 0.00672

Q) Give recombinant UMI read abundance (log10) for GGTTTATCATGGACCGGTTTTCCCGGTAATCCGTATTTGAC (site GGTTTATCTGT)
A) 0.699

Q) Provide one value: measured recombinant UMI read abundance (log10) of GAAGTGGCATGGACCGGTTTTCCCGGTAATCCGTATTTGGT (site GGAGTGGCTAC)
A) 0.113

Q) Given GAATGGCCATGGACCGGTTTTCCCGGTAATCCGTATTTGGA (site GAATGGCCTTC) , respond with its recombinant UMI read abundance (log10).
A) 0.00798

---

measurement.description: recombinant barcode read abundance after kanamycin selection (control-corrected) (log10(CPM+1)); higher = more efficient recombination; sequences stand for … in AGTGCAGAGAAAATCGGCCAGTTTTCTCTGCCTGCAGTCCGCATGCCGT…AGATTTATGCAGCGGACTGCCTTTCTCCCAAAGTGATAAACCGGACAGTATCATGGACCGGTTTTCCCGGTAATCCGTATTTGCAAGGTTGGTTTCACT; site = the 11-nt target
readout.type: recombinant barcode read abundance (log10)
Form rule: numeric answer, no unit written next to it.

Q) Report recombinant barcode read abundance (log10), nothing else, for this sequence: TACGGGGCTTGGGTTCTAACCTGTTGCCT (site TACGGGGCTAG)
A) 0.572

Q) Please indicate recombinant barcode read abundance (log10) recorded for GAATCTACTTGGGTTCTAACCTGTTGCTT (site GAGTCTACTAA)
A) 0.122

Q) Answer with the recorded recombinant barcode read abundance (log10) of AAGGGCTCTTGGGTTCTAACCTGTTGCTT (site AAGGGCTCTAA) only.
A) 2.72

Q) Specify reported recombinant barcode read abundance (log10) for the sequence shown: AGTCTAGCTTGGGTTCTAACCTGTTGCCA (site AGTCTAGCTCG)
A) 0.217

Q) Give the measured recombinant barcode read abundance (log10) for CTCGATTCTTGGGTTCTAACCTGTTGCAT (site CTCAATTCTAT)
A) 0.355

---

measurement.description: recombinant barcode read abundance after kanamycin selection (control-corrected) (log10(CPM+1)); higher = more efficient recombination; sequences stand for … in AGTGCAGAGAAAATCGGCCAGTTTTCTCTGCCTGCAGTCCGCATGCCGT…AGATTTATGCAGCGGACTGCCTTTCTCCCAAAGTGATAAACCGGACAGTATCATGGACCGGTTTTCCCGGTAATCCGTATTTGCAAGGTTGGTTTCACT; site = the 11-nt target
Record Condition met whenever recombinant barcode read abundance (log10) is at 0.2 or higher; record Condition not met when lower.

Q) Threshold query (recombinant barcode read abundance (log10) >= 0.2) on GCGGGTACTTGGGTTCTAACCTGTTGCCT (site GCGTGTACTAG)
A) Condition not met

Q) hey, is recombinant barcode read abundance (log10) for this one >= 0.2? TATTAGACTTGGGTTCTAACCTGTTGCCT (site CATTAGACTAG)
A) Condition not met

Q) Given the entry ATAGCGACTTGGGTTCTAACCTGTTGCCT (site ATAGCTACTAG) , answer whether its recombinant barcode read abundance (log10) meets or surpasses 0.2.
A) Condition not met

Q) Given the entry CGTTATTCTTGGGTTCTAACCTGTTGCCT (site CGTTATTCTAG) , answer whether its recombinant barcode read abundance (log10) meets or surpasses 0.2.
A) Condition not met

Q) Form field: recombinant barcode read abundance (log10) at least 0.2? Entry: TGAGGGTCTTGGGTTCTAACCTGTTGCTT (site TGAGGGTCTAA)
A) Condition met

Q) Could you verify whether the entry CGGCCACCTTGGGTTCTAACCTGTTGCTT (site CGGCCACCTAA) shows recombinant barcode read abundance (log10) of no less than 0.2?
A) Condition met

Q) Could you tell me if the measured recombinant barcode read abundance (log10) of CTCCGCTCTTGGGTTCTAACCTGTTGCCT (site CTCCGCTCTAG) reaches 0.2 or more?
A) Condition met

Q) Form field: recombinant barcode read abundance (log10) at least 0.2? Entry: GAGCGCTCTTGGGTTCTAACCTGTTGCTA (site GAGCGCTCTTA)
A) Condition met

Q) // inclusive: recombinant barcode read abundance (log10) at least 0.2? input: AGACCACCTTGGGTTCTAACCTGTTGCCT (site ACACCACCTAG)
A) Condition met

Q) Does the reported recombinant barcode read abundance (log10) for ATAGCCACTTGGGTTCTAACCTGTTGCCT (site ATAGCAACTAG) fall at or above the 0.2 mark?
A) Condition not met

Q) Tell me whether recombinant barcode read abundance (log10) is at least 0.2 here: CACACCACTTGGGTTCTAACCTGTTGCCT (site CACAACACTAG)
A) Condition met

Q) Would you say ACGCGGCCTTGGGTTCTAACCTGTTGCCT (site TCGCGGCCTAG) shows recombinant barcode read abundance (log10) at minimum 0.2?
A) Condition not met

Q) Does recombinant barcode read abundance (log10) meet or surpass 0.2 for TGTTCTACTTGGGTTCTAACCTGTTGCCG (site TGTTCTACTCG) ?
A) Condition not met

Q) Dear colleague, could you confirm whether CAAGTCGCTTGGGTTCTAACCTGTTGCCT (site CAAGTAGCTAG) has recombinant barcode read abundance (log10) at or above 0.2?
A) Condition met

Q) // inclusive: recombinant barcode read abundance (log10) at least 0.2? input: CTGGAACCTTGGGTTCTAACCTGTTGCGG (site CTGGAACCTCC)
A) Condition met

Q) Test whether the sequence ATAATACCTTGGGTTCTAACCTGTTGCCT (site ACAATACCTAG) records recombinant barcode read abundance (log10) of 0.2 or higher.
A) Condition not met

Q) Does CTAGACTCTTGGGTTCTAACCTGTTGCTT (site CTAGACTCTAA) have a reported recombinant barcode read abundance (log10) of at least 0.2?
A) Condition met

Q) Confirm if recombinant barcode read abundance (log10) reported for the sequence CTACAATCTTGGGTTCTAACCTGTTGCCT (site TTACAATCTAG) is 0.2 or above.
A) Condition not met

Q) Please check the record AGCGCGCCTTGGGTTCTAACCTGTTGCTG (site AGCGCGCCTCA) and state if its recombinant barcode read abundance (log10) is at or above 0.2.
A) Condition met

Q) Say whether GAATCTACTTGGGTTCTAACCTGTTGCCT (site GTATCTACTAG) shows recombinant barcode read abundance (log10) of 0.2 or more.
A) Condition not met
